Test system: Escherichia coli
ASSAY_NOTES: Antibacterial activity against Escherichia coli BW25113 expressing 2''-O-adenylyltransferase 1a with aadB gene into pGDP4 vector by checkerboard analysis in presence of gentamycin
Assay type: functional
Catalogue of fractional inhibitory concentration index (FICI) values
Please reply with the value in numeric form only.

Illustrative cases are given below, each with its answer.
• CC(C)c1ccc(O)c(=O)c(O)c1 [BETA-THUJAPLICINOL] = 0.375
• Cc1cc(O)c(=O)c(O)cc1-c1ccc(Br)cc1 = 1
• CC(=O)c1cc(O)c(=O)c(O)cc1C = 0.187
• Cc1cc(O)c(=O)c(O)cc1-c1ccccc1 = 2
• Cc1cc(O)c(=O)c(O)cc1-c1ccc(Cl)cc1 = 2
• Cc1cc(O)c(=O)c(O)cc1-c1ccc([N+](=O)[O-])cc1 = 0.5

Then there is this molecule:
Asked: I have this molecule here, `Cc1cc(O)c(=O)c(O)cc1C(=O)C(C)C` , and I need its recorded fractional inhibitory concentration index (FICI).
Given back: 0.375

The values you see were collected from ChEMBL document CHEMBL3351496.
